TARGET_UNDER_TEST: human CYP17 (Homo sapiens)
Sequence (P05093 whole entry): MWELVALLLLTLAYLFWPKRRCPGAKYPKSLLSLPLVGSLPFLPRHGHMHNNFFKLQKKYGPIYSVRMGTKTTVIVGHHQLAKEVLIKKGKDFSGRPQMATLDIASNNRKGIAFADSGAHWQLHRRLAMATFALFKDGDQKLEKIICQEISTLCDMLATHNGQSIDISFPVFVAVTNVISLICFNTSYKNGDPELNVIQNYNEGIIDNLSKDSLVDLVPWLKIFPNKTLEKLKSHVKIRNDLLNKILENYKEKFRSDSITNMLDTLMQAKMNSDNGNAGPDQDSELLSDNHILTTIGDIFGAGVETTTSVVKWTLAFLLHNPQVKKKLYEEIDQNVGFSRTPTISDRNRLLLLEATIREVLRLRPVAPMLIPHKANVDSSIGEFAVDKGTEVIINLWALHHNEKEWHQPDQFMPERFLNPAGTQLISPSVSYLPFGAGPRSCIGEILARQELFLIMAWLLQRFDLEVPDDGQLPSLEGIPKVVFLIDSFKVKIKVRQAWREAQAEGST
TEST_SUMMARY: Acetic acid releasing assay for CYP17 activity in 293T-CYP17 cells
Type: cell-based
CONDITIONS: read-out: CYP17 IC50, each in duplicate

- COMPOUND: "C[C@]12CC[C@@H](N=[N+]=[N-])CC1=CC[C@@H]1[C@@H]2CC[C@]2(C)C(n3cnc4ccccc43)=CC[C@@H]12"
  IC50: "120 nM"
- COMPOUND: "C[C@]12CCC(F)CC1=CC[C@@H]1[C@@H]2CC[C@]2(C)C(n3cnc4ccccc43)=CC[C@@H]12 (some centres unmarked)"
  IC50: "150 nM"
